- ASSAYED_TARGET: PARK7 (Homo sapiens, UniProt Q99497)
- Sequence (Q99497 whole entry): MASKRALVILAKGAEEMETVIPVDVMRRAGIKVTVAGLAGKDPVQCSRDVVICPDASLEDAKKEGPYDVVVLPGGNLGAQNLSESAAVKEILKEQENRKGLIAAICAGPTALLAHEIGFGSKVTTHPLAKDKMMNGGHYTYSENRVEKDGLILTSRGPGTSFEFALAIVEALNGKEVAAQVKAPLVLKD
- TEST_PROTOCOL: High-throughput screen of the crude compound library, PARK7 fluorescence polarization (FP) assay with FP reagent JYQ-107
- Format: biochemical
- APPLIED_CONDITIONS: 1.25 µM, crude compound library, FP reagent JYQ-107; read-out: HTS FP assay %Inhibition (1.25 µM)
QUANTITY_NAME: inhibition at 1.25 µM (%)

- COMPOUND: "N#CN1CC[C@@H](C(=O)Nc2nc3c(s2)CN(C(=O)c2ccc(N4CCCC4)cc2F)CC3)C1"
  inhibition at 1.25 µM / %: 82.6
- COMPOUND: "CC(C)c1cc(C(=O)N2CCc3nc(NC(=O)[C@@H]4CCN(C#N)C4)sc3C2)n(-c2ccccc2)n1"
  inhibition at 1.25 µM / %: 87
- COMPOUND: "N#CN1CC[C@@H](C(=O)Nc2nc3c(s2)CN(C(=O)CCN2C(=O)C=CC2=O)CC3)C1"
  inhibition at 1.25 µM / %: 65.7
- COMPOUND: "C#CCCC(=O)N1CCc2nc(NC(=O)[C@@H]3CCN(C#N)C3)sc2C1"
  inhibition at 1.25 µM / %: 82.4
- COMPOUND: "N#CN1CC[C@@H](C(=O)Nc2nc3c(s2)CN(C(=O)C(c2ccccc2)n2cccc2)CC3)C1 (stereo partly shown)"
  inhibition at 1.25 µM / %: 68.5
- COMPOUND: "Cc1c(Br)cccc1C(=O)N1CCc2nc(NC(=O)[C@@H]3CCN(C#N)C3)sc2C1"
  inhibition at 1.25 µM / %: 81
- COMPOUND: "N#CN1CC[C@@H](C(=O)Nc2nc3c(s2)CN(C(=O)c2ncn(-c4ccccc4)n2)CC3)C1"
  inhibition at 1.25 µM / %: 85.3
